B1: LINE1-full (parent)
chain: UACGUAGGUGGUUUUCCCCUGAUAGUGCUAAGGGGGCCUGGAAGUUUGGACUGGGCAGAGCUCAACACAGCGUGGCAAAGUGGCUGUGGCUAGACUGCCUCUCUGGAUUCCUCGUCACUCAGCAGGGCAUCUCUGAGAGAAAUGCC

Variants of: B1
PROCEDURE DETAILS: self-cleavage, relative activity (ratio to wild type); higher = more cleavage; in vitro, sequencing; the parent is a self-cleaving ribozyme
Assign class by self-cleavage: not lower than 1 means 1; lower than 1 means 0.

U62C U112A : 0
G36C G82U : 1
A57G U104C : 1
U5A U85C : 0
C19U U134A : 0
G27A A65G : 0
U102A U112C : 0
A94U A136U : 0
U13C C131A : 1
U52C U115A : 1

Shifting focus to the variant that follows.
IN: Dear colleague, could you confirm whether U45A G139A has self-cleavage at or above 1?
OUT: 1
